B1: NADP-dependent isopropanol dehydrogenase, P25984 (parent)
chain: MKGFAMLGINKLGWIEKERPVAGSYDAIVRPLAVSPCTSDIHTVFEGALGDRKNMILGHEAVGEVVEVGSEVKDFKPGDRVIVPCTTPDWRSLEVQAGFQQHSNGMLAGWKFSNFKDGVFGEYFHVNDADMNLAILPKDMPLENAVMITDMMTTGFHGAELADIQMGSSVVVIGIGAVGLMGIAGAKLRGAGRIIGVGSRPICVEAAKFYGATDILNYKNGHIVDQVMKLTNGKGVDRVIMAGGGSETLSQAVSMVKPGGIISNINYHGSGDALLIPRVEWGCGMAHKTIKGGLCPGGRLRAEMLRDMVVYNRVDLSKLVTHVYHGFDHIEEALLLMKDKPKDLIKAVVIL

# Variants of: B1
# condition.set: Clostridium beijerinckii; pH 8.25; Thermal; DSC; Sodium phosphate 25 mM; NaCl 1 M; reversible: yes; structure 1KEV; whole UniProt chain shown
Answer each item with its documented Tm.
One number for each entry, in °C.

Each variant below has a reported value. Please supply its Tm.
1. H222P
2. T149P
3. L316P
4. A347P
5. A22P
6. A177P
7. S24P L316P
8. S24P

1. 59.5
2. 65
3. 76.8
4. 68.6
5. 66.7
6. 66.5
7. 77.1
8. 69.9

Item L275P has what recorded Tm?
63.7
